Just for reference, the RNAGym collection of RNA variant scans (doi:10.7554/elife.80360) is where these values come from.

Give self-cleavage for every item shown.
B1: Hairpin Ribozyme (parent)
chain: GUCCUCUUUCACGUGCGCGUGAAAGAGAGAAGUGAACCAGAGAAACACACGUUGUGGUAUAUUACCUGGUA

Variants of: B1
experiment-description: self-cleavage, relative activity (ratio to wild type); higher = more cleavage; co-transcriptional
Answer with a bare number; do not write a unit.

In plain terms, `GUCCUCUUUCACGUGCGCGUGAAAGAGAGAAGUCAACCAGAGAAACACACGUUGUGGUAUAUUACCUGGAA` has a documented self-cleavage of 1.12

In plain terms, `GUCCUCUUUCACGUGCGCGUGAAAGAGAAAAGUGAACCAGAGAAACACACGUUGUUGUAUAUUACCUGGUA` has a documented self-cleavage of 0.111

In plain terms, `GUCCUCUUUCACGUGCGCGUGAAACAGAGAAGUCAACCAGAGAAACACACGUUGUGGUAUAUUACCUGGUA` has a documented self-cleavage of 0.967

In plain terms, `GUCCUCUUUCACGUGCGCGUGAAAGAGAGAUAUGAACCAGAGAAACACACGUUGUGGUAUAUUACCUGGUA` has a documented self-cleavage of 0.102

In plain terms, `GUCCUCUUUCACGUGCGCGUGAAAGAGAGAUGUGAACCAGAGAAACACACGUUGUGGUAUAUUACCUGGGA` has a documented self-cleavage of 0.27

In plain terms, `GUCCUCUUUCACGUGCGCUUGAAAGAGAGAAGUGAAACAGAGAAACACACGUUGUGGUAUAUUACCUGGUA` has a documented self-cleavage of 0.34

In plain terms, `GUCCUCUUUCACGUGCACGUGAAAGCGAGAAGUGAACCAGAGAAACACACGUUGUGGUAUAUUACCUGGUA` has a documented self-cleavage of 0.75

In plain terms, `GUCCUCUUACACGUGCGCGUGAAAGAGAGAAGUGAGCCAGAGAAACACACGUUGUGGUAUAUUACCUGGUA` has a documented self-cleavage of 0.797

In plain terms, `GUCCUCUUUCACGUGCGCGUGAAAGAGAGAAGUGAACUAGAGAAACACACGUUGUGGUAUAUUACCUGAUA` has a documented self-cleavage of 0.138

In plain terms, `GUCCUCUUUAACGUGCGCGUGAAAGAGAGAAAUGAACCAGAGAAACACACGUUGUGGUAUAUUACCUGGUA` has a documented self-cleavage of 0.161

In plain terms, `GUCCUCUUUCACGUGCGGGUGAAAGAGAGAAGUGAACCAGAGAAACUCACGUUGUGGUAUAUUACCUGGUA` has a documented self-cleavage of 0.0785

In plain terms, `GUCCUCUUUCACGUGCGCGUGAAAGAGAGAAGUGAACUAGAGAAACACACGUUGUGGUAUACUACCUGGUA` has a documented self-cleavage of 0.273

In plain terms, `GUCCUCUUUCACGUGCCCGUGAAAGAGAGAAGUGAACCAGAGAAACACACGCUGUGGUAUAUUACCUGGUA` has a documented self-cleavage of 0.778

In plain terms, `GUGCUCUUUCACGUGAGCGUGAAAGAGAGAAGUGAACCAGAGAAACACACGUUGUGGUAUAUUACCUGGUA` has a documented self-cleavage of 0.324

In plain terms, `GUCCUCUUUCACGUGCGCGUGAAAGAGAGAAAUGAACCAGAGAAACACACGUGGUGGUAUAUUACCUGGUA` has a documented self-cleavage of 0.146

In plain terms, `UUCCUCUUUCACGUGCGCGUGUAAGAGAGAAGUGAACCAGAGAAACACACGUUGUGGUAUAUUACCUGGUA` has a documented self-cleavage of 0.119

In plain terms, `GUCCUCUUUCACGUGCGCGUGAAAGAGGAAAGUGAACCAGAGAAACACACGUUGUGGUAUAUUACCUGGUA` has a documented self-cleavage of 0.13

In plain terms, `GUCCUCUUUCACGUGCGCGUGAAAGAGAGAAGUGAACCAGAGAAACACACGUUGUGGAAUAUUACCUGAUA` has a documented self-cleavage of 0.201

In plain terms, `GUCCUCUUUCACGAGCGCGUGAAAGAGAGAAGUGAACCAGAGAAACACACGUUGUGGUAUAUUACCAGGUA` has a documented self-cleavage of 0.188

In plain terms, `GUCCUCUUUCACGUGCGGGUGAAAGAGAGAAGUGAACCAGAGAAACACACGUUGUGGUAUAUUACCUGGAA` has a documented self-cleavage of 0.885

In plain terms, `GUCCUCUUUCACGUGCGCGUGAAAGAGAGAAUUGUACCAGAGAAACACACGUUGUGGUAUAUUACCUGGUA` has a documented self-cleavage of 0.191

In plain terms, `GUCCUCUUUCACGUGCGCGUGAAAGAGAGAAGUGAACCUGAGAAACACACGUUGUGCUAUAUUACCUGGUA` has a documented self-cleavage of 0.134
